# system tested: RhlR (Pseudomonas aeruginosa, UniProt P54292)
# Construct: expressed in transfected cells; host or cells: E. coli JLD271 (ΔsdiA) with pJN105R2 (arabinose-induced) and pSC11-rhlI*
# Sequence (P54292 whole entry): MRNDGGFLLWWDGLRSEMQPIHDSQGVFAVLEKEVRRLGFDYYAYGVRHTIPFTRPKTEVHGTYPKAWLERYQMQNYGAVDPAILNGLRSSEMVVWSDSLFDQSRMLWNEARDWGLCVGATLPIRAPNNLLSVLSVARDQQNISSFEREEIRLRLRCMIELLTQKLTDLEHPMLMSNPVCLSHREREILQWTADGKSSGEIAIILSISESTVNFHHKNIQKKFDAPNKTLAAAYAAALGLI
# experiment: E. coli RhlR reporter antagonism assay vs 10 μM BHL (JLD271/pJN105R2/pSC11-rhlI*)
# Assay type: cell-based, P. aeruginosa
# experimental setup: read-out: % inhibition (10 μM), compound at 10 μM in the presence of 10 μM BHL; negative = agonism stronger than 10 μM BHL alone
Hi there, I'd appreciate the recorded inhibition at 10 µM for every entry that follows.
Numbers only, in %.

1) CCCC(=O)N[C@H]1CCNC1=O = -1
2) O=C(N[C@H]1CCOC1=O)C1CC1 = -2
3) O=C(COc1ccc(I)cc1)N[C@H]1CCSC1=O = 28

Dear colleague, could you send me inhibition at 10 µM for each of the items below? Thanks.
1. CCC(=O)N[C@H]1CCOC1=O
2. CCC(CC)C(=O)N[C@H]1CCOC1=O
3. CCCC(=O)NCC1CCCO1 (centres unmarked)
4. CC1(C(=O)N[C@H]2CCOC2=O)CC1
5. O=C(N[C@H]1CCSC1=O)C1CCC1

1: -5; 2: 2; 3: 1; 4: 2; 5: -85

Dear colleague, could you send me inhibition at 10 µM for each of the items below? Thanks.
1. C#CCCC(=O)N[C@H]1CCOC1=O
2. CCCS(=O)(=O)N[C@H]1CCOC1=O
3. CC(C)(C)C(=O)N[C@H]1CCOC1=O

1: -7; 2: 8; 3: 0
